Test system: Escherichia coli
Experiment: Antibacterial activity against Escherichia coli TG1 pTZ19U-3 plasmid encoded for APH(3')-1 after 12 to 18 hrs
Type: functional
metric: MIC

[
  {
    "compound": "NCC(=O)NC[C@H]1O[C@@H](O[C@@H]2[C@@H](O)[C@H](N)C[C@H](N)[C@H]2O[C@H]2O[C@H](CN)[C@@H](O)[C@H](O)[C@H]2N)[C@H](O)[C@@H]1O[C@H]1O[C@@H](CN)[C@@H](O)[C@H](O)[C@H]1N",
    "MIC": "500 µg/mL"
  },
  {
    "compound": "CCCCCCCCCCCCCCCCCC(=O)NC[C@H]1O[C@@H](O[C@@H]2[C@@H](O)[C@H](N)C[C@H](N)[C@H]2O[C@H]2O[C@H](CN)[C@@H](O)[C@H](O)[C@H]2N)[C@H](O)[C@@H]1O[C@H]1O[C@@H](CN)[C@@H](O)[C@H](O)[C@H]1N",
    "MIC": "8 µg/mL"
  },
  {
    "compound": "NC[C@@H]1O[C@H](O[C@H]2[C@@H](O)[C@H](O[C@@H]3[C@@H](O)[C@H](N)C[C@H](N)[C@H]3O[C@H]3O[C@H](CN)[C@@H](O)[C@H](O)[C@H]3N)O[C@@H]2CNC(=O)[C@@H]2CCCN2)[C@H](N)[C@@H](O)[C@@H]1O",
    "MIC": "≥ 2000 µg/mL"
  },
  {
    "compound": "NCc1cn(C[C@H]2O[C@@H](O[C@@H]3[C@@H](O)[C@H](N)C[C@H](N)[C@H]3O[C@H]3O[C@H](CN)[C@@H](O)[C@H](O)[C@H]3N)[C@H](O)[C@@H]2O[C@H]2O[C@@H](CN)[C@@H](O)[C@H](O)[C@H]2N)nn1",
    "MIC": "1000 µg/mL"
  },
  {
    "compound": "NC[C@@H]1O[C@H](O[C@H]2[C@@H](O)[C@H](O[C@@H]3[C@@H](O)[C@H](N)C[C@H](N)[C@H]3O[C@H]3O[C@H](CN)[C@@H](O)[C@H](O)[C@H]3N)O[C@@H]2CO)[C@H](N)[C@@H](O)[C@@H]1O",
    "MIC": "≥ 2000 µg/mL"
  }
]

# input Please state recorded MIC (tested on Escherichia coli) of C[C@H](N)C(=O)NC[C@H]1O[C@@H](O[C@@H]2[C@@H](O)[C@H](N)C[C@H](N)[C@H]2O[C@H]2O[C@H](CN)[C@@H](O)[C@H](O)[C@H]2N)[C@H](O)[C@@H]1O[C@H]1O[C@@H](CN)[C@@H](O)[C@H](O)[C@H]1N
# output ≥ 2000 µg/mL

# input Quick one: NC[C@@H]1O[C@H](O[C@H]2[C@@H](O)[C@H](O[C@@H]3[C@@H](O)[C@H](N)C[C@H](N)[C@H]3O[C@H]3O[C@H](CN)[C@@H](O)[C@H](O)[C@H]3N)O[C@@H]2CNC(=O)[C@@H](N)Cc2c[nH]c3ccccc23)[C@H](N)[C@@H](O)[C@@H]1O
# output ≥ 2000 µg/mL

# input Quick one: NC[C@@H]1O[C@H](O[C@H]2[C@@H](O)[C@H](O[C@@H]3[C@@H](O)[C@H](N)C[C@H](N)[C@H]3O[C@H]3O[C@H](CN)[C@@H](O)[C@H](O)[C@H]3N)O[C@@H]2Cn2cc(CNC(=O)C3CCNCC3)nn2)[C@H](N)[C@@H](O)[C@@H]1O
# output ≥ 2000 µg/mL

# input Quick one: NC[C@@H]1O[C@H](O[C@H]2[C@@H](O)[C@H](O[C@@H]3[C@@H](O)[C@H](N)C[C@H](N)[C@H]3O[C@H]3O[C@H](CN)[C@@H](O)[C@H](O)[C@H]3N)O[C@@H]2CNC(=O)CCC(=O)NC[C@H]2O[C@@H](O[C@@H]3[C@@H](O)[C@H](N)C[C@H](N)[C@H]3O[C@H]3O[C@H](CN)[C@@H](O)[C@H](O)[C@H]3N)[C@H](O)[C@@H]2O[C@H]2O[C@@H](CN)[C@@H](O)[C@H](O)[C@H]2N)[C@H](N)[C@@H](O)[C@@H]1O
# output 500 µg/mL

# input Quick one: NCCCC[C@@H](N)C(=O)NC[C@H]1O[C@@H](O[C@@H]2[C@@H](O)[C@H](N)C[C@H](N)[C@H]2O[C@H]2O[C@H](CN)[C@@H](O)[C@H](O)[C@H]2N)[C@H](O)[C@@H]1O[C@H]1O[C@@H](CN)[C@@H](O)[C@H](O)[C@H]1N
# output ≥ 2000 µg/mL

# input Quick one: CC(=O)NCC1CN(Cc2cn(C[C@H]3O[C@@H](O[C@@H]4[C@@H](O)[C@H](N)C[C@H](N)[C@H]4O[C@H]4O[C@H](CN)[C@@H](O)[C@H](O)[C@H]4N)[C@H](O)[C@@H]3O[C@H]3O[C@@H](CN)[C@@H](O)[C@H](O)[C@H]3N)nn2)C(=O)O1 (stereo not given in full)
# output ≥ 2000 µg/mL

# input Quick one: NC[C@@H]1O[C@H](O[C@H]2[C@@H](O)[C@H](O[C@@H]3[C@@H](O)[C@H](N)C[C@H](N)[C@H]3O[C@H]3O[C@H](CN)[C@@H](O)[C@H](O)[C@H]3N)O[C@@H]2CNC(=O)[C@@H](N)CO)[C@H](N)[C@@H](O)[C@@H]1O
# output ≥ 2000 µg/mL

# input Quick one: NCC(=O)NCC(=O)NC[C@H]1O[C@@H](O[C@@H]2[C@@H](O)[C@H](N)C[C@H](N)[C@H]2O[C@H]2O[C@H](CN)[C@@H](O)[C@H](O)[C@H]2N)[C@H](O)[C@@H]1O[C@H]1O[C@@H](CN)[C@@H](O)[C@H](O)[C@H]1N
# output 125 µg/mL

# input Quick one: C[C@@H](N)C(=O)NC[C@H]1O[C@@H](O[C@@H]2[C@@H](O)[C@H](N)C[C@H](N)[C@H]2O[C@H]2O[C@H](CN)[C@@H](O)[C@H](O)[C@H]2N)[C@H](O)[C@@H]1O[C@H]1O[C@@H](CN)[C@@H](O)[C@H](O)[C@H]1N
# output ≥ 2000 µg/mL

# input Quick one: CN(C)Cc1cn(C[C@H]2O[C@@H](O[C@@H]3[C@@H](O)[C@H](N)C[C@H](N)[C@H]3O[C@H]3O[C@H](CN)[C@@H](O)[C@H](O)[C@H]3N)[C@H](O)[C@@H]2O[C@H]2O[C@@H](CN)[C@@H](O)[C@H](O)[C@H]2N)nn1
# output ≥ 2000 µg/mL

* * *

System: Enterococcus
Assay: Activity of Enterococcus APH(3')-3a
metric: kcat (s⁻¹)
Enter your answer as a number in s⁻¹; do not include the unit.

Sample answers from the record:
[
  {
    "compound": "CC(=O)NCC1CN(Cc2cn(C[C@H]3O[C@@H](O[C@@H]4[C@@H](O)[C@H](N)C[C@H](N)[C@H]4O[C@H]4O[C@H](CN)[C@@H](O)[C@H](O)[C@H]4N)[C@H](O)[C@@H]3O[C@H]3O[C@@H](CN)[C@@H](O)[C@H](O)[C@H]3N)nn2)C(=O)O1 (stereo partly drawn)",
    "target-entity": "Enterococcus",
    "uom": "s⁻¹",
    "kcat": 0.21
  },
  {
    "compound": "NC[C@@H]1O[C@H](O[C@H]2[C@@H](O)[C@H](O[C@@H]3[C@@H](O)[C@H](N)C[C@H](N)[C@H]3O[C@H]3O[C@H](CN)[C@@H](O)[C@H](O)[C@H]3N)O[C@@H]2Cn2cc(CNC(=O)c3cc(-c4ccccc4)nc4ccccc34)nn2)[C@H](N)[C@@H](O)[C@@H]1O",
    "target-entity": "Enterococcus",
    "uom": "s⁻¹",
    "kcat": 0.15
  },
  {
    "compound": "NC[C@@H]1O[C@H](O[C@H]2[C@@H](O)[C@H](O[C@@H]3[C@@H](O)[C@H](N)C[C@H](N)[C@H]3O[C@H]3O[C@H](CN)[C@@H](O)[C@H](O)[C@H]3N)O[C@@H]2Cn2cc(CNC(=O)C3CCNCC3)nn2)[C@H](N)[C@@H](O)[C@@H]1O",
    "target-entity": "Enterococcus",
    "uom": "s⁻¹",
    "kcat": 0.21
  },
  {
    "compound": "NCC(=O)NC[C@H]1O[C@@H](O[C@@H]2[C@@H](O)[C@H](N)C[C@H](N)[C@H]2O[C@H]2O[C@H](CN)[C@@H](O)[C@H](O)[C@H]2N)[C@H](O)[C@@H]1O[C@H]1O[C@@H](CN)[C@@H](O)[C@H](O)[C@H]1N",
    "target-entity": "Enterococcus",
    "uom": "s⁻¹",
    "kcat": 0.44
  },
  {
    "compound": "NC[C@@H]1O[C@H](O[C@H]2[C@@H](O)[C@H](O[C@@H]3[C@@H](O)[C@H](N)C[C@H](N)[C@H]3O[C@H]3O[C@H](CN)[C@@H](O)[C@H](O)[C@H]3N)O[C@@H]2CNC(=O)[C@@H](N)CO)[C@H](N)[C@@H](O)[C@@H]1O",
    "target-entity": "Enterococcus",
    "uom": "s⁻¹",
    "kcat": 0.51
  }
]

# input Which kcat reading was recorded for the compound NC[C@@H]1O[C@H](O[C@H]2[C@@H](O)[C@H](O[C@@H]3[C@@H](O)[C@H](N)C[C@H](N)[C@H]3O[C@H]3O[C@H](CN)[C@@H](O)[C@H](O)[C@H]3N)O[C@@H]2CNC(=O)CCC(=O)O)[C@H](N)[C@@H](O)[C@@H]1O ?
# output 0.43

# input Quick one: NC[C@@H]1O[C@@H](O[C@H]2[C@H](O)[C@@H](O[C@H]3O[C@H](CO)[C@@H](O)[C@H](N)[C@H]3O)[C@H](N)C[C@@H]2N)[C@@H](O)[C@H](O)[C@H]1O
# output 3.48

# input Quick one: NCC[C@H](O)C(=O)N[C@@H]1C[C@H](N)[C@@H](O[C@H]2O[C@H](CN)[C@@H](O)[C@H](O)[C@H]2O)[C@H](O)[C@H]1O[C@H]1O[C@H](CO)[C@@H](O)[C@H](N)[C@H]1O
# output 1.38
